Target: T1, human MSLN protein endogenously expressed on OVCAR3 tumor cells (human, UniProt Q13421 296-598)
T1 construct: whole, on cells; Endogenous target on OVCAR3 cells; kept apart from the recombinant full-length construct; also called mesothelin
T1 sequence (Q13421 other isoform, or with tags, fused parts or gaps): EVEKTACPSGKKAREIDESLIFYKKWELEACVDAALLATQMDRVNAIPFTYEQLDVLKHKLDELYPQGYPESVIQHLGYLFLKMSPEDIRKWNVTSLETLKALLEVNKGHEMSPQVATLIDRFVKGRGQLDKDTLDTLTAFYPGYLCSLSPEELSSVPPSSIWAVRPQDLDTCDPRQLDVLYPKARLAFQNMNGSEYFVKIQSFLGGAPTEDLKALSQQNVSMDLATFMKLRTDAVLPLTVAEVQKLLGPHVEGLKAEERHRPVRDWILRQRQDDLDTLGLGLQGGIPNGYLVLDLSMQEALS
Assay: FACS on OVCAR3 cells;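 also: flow cytometry binding of test antibodies to cells, 2 h incubation on ice, readout as cell mean fluorescence intensity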
property.label: EC50 (nM)
Could you give me the number in nM? Just the number is fine.

binder	EC50 / nM
S009-F7.66.12 (antibody, human IgG1, kappa, V domains shown, human-murine chimeric antibody, human IgG1/kappa constant regions) VH: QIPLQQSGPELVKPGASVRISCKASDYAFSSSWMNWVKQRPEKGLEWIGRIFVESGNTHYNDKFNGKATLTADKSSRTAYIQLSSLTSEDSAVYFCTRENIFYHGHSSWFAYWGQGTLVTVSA VL: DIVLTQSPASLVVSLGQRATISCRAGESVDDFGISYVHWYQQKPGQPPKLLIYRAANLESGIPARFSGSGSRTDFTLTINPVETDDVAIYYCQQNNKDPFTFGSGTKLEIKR	0.87

Here is another binder to look at.
## Input Reported EC50, binder S009-F7.65.13 (antibody, human IgG1, kappa, V domains shown, human-murine chimeric antibody, human IgG1/kappa constant regions) VH: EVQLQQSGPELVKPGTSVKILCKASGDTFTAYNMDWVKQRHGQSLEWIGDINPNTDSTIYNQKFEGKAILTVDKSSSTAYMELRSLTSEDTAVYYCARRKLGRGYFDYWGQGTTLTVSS VL: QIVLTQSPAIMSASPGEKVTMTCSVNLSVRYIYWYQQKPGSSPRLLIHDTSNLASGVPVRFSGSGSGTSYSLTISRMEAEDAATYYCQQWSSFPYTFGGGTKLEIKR : ____
## Output 0.87
